assay: chemical genetic growth profiling, strain panel (AID 1159580);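 further: tested at 20 µM; growth read once vehicle control cultures reached saturation at 30 °C; 1 = growth at the plate median or of vehicle wells; lower values mean less growth of the strain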; conditions: S. cerevisiae deletion strains, growth OD, locus YMR223W, strain ubp8, hits give low values
Screen size: about 5,500 compounds; about 2,000 (36%) were called active. Not shown: some 18% with an inconclusive outcome. This is one part of the list. Where a SMILES comes first, the peptide text is derived from it. Bridges are numbered along the chain shown (N, C = ends). [ ]: non-standard residue; d: D form. The star is where a group is joined. Octanoyl(6-Me) = CCC(C)CCCCC(=O)*; Dab = NCC[CH](N)C(=O)O
Listed here: items and their measured normalized growth.
Write the number on its own, no unit after it.

compound	normalized growth
COc1cc2c(cc1OC)[C@@]13CCN4CC5=CCOC6CC(=O)N2C1[C@H]6[C@H]5C[C@H]43 (some centres undefined)	1
CC(=O)OCC(=O)[C@@]1(O)CCC2C3CC[C@@H]4C[C@H](OC(C)=O)CC[C@]4(C)C3C(=O)C[C@@]21C (some centres undefined)	1.02
CC(=O)O[C@@H]1CC[C@]2(C)C3CC[C@]4(C)C(=O)CCC4C3CC[C@H]2C1 (some centres undefined)	0.916

Incoming: Item under review: CCC(C)CCCCC(=O)NC(CCN)C(=O)NC(C(=O)NC(CCN)C(=O)NC1CCNC(=O)C(C(C)O)NC(=O)C(CCN)NC(=O)C(CCN)NC(=O)C(CC(C)C)NC(=O)C(Cc2ccccc2)NC(=O)C(CCN)NC1=O)C(C)O (centres undefined) ({Octanoyl(6-Me)}-[Dab]T[Dab][Dab][Dab]FL[Dab][Dab]T; lactam 4-C; configuration not given here) . Reported normalized growth?
Outgoing: 0.975
